- Measured target: T1, human glycophorin A on human red blood cells or red blood cell membranes (human, UniProt P02724 20-150)
- T1 construct: whole, on cells; also called hRBC; human RBC membranes
- T1 sequence (looked up): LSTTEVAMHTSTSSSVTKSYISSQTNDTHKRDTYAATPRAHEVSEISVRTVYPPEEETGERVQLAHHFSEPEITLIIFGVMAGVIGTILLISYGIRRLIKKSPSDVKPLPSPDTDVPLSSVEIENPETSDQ
- Assay notes: scFv on intact human RBC, unbound scFv by ELISA; 60 min after 200-fold dilution
The following binders are shown together with reported percentage of input scFv antibody bound values.

Binder	percentage of input scFv antibody bound [%]
TPP-7795 scFv with C-terminal 6xHIS tag (scFv) scFv: DIQLTQSPSFLSASVGDRVTITCRASSSVSYIYWFQQKPGKAPKLLIYATSFLQSGVPSRFSGSGSGTEYTLTISSLQPEDFATYYCHQRNSFPYTFGQGTKLEIKGGGGSGGGGSGGGGSGGGGSEVQLVQSGAEVKKPGASVKVSCKASGYTFTTYTIHWVRQAPGQGLEWMGYINPKSGWTRYNPKFKGRVTMTRDKSTSTAYMELRSLRSDDTAVYYCQTGTRDYWGQGTTVTVSSHHHHHH	84
TPP-7797 scFv with C-terminal 6xHIS tag (scFv) scFv: DIQLTQSPSFLSASVGDRVTITCRASSSVRYIYWFQQKPGKAPKLLIYATSFRQSGVPSRFSGSGSGTEYTLTISSLQPEDFATYYCHQRNSFPYTFGQGTKLEIKGGGGSGGGGSGGGGSGGGGSEVQLVQSGAEVKKPGASVKVSCKASGYTFTTYTIHWVRQAPGQGLEWMGYINPSSGYTRYNPKFKGRVTMTRDKSTSTAYMELRSLRSDDTAVYYCWTGRRDYWGQGTTVTVSSHHHHHH	99
TPP-7794 scFv with C-terminal 6xHIS tag (scFv) scFv: DIQLTQSPSFLSASVGDRVTITCRASSSVRYIYWFQQKPGKAPKLLIYATSFRQSGVPSRFSGSGSGTEYTLTISSLQPEDFATYYCHQRNSFPYTFGQGTKLEIKGGGGSGGGGSGGGGSGGGGSEVQLVQSGAEVKKPGASVKVSCKASGYTFTTYAIHWVRQAPGQGLEWMGYINPSSGYTRYNPKFKHRVTMTRDKSTSTAYMELRSLRSDDTAVYYCWTGTRDYWGQGTTVTVSSHHHHHH	85
TPP-7782 scFv with C-terminal 6xHIS tag (scFv) scFv: DIQLTQSPSFLSASVGDRVTITCRASSSVRYIYWFQQKPGKAPKLLIYATSFRQSGVPSRFSGSGSGTEYTLTISSLQPEDFATYYCHQRNSFPYTFGQGTKLEIKGGGGSGGGGSGGGGSGGGGSEVQLVQSGAEVKKPGASVKVSCKASGYTFTTYTIHWVRQAPGQGLEWMGYINPSSGYTRYNPKFKGRVTMTRDKSTSTAYMELRSLRSDDTAVYYCQTGTRDYWGQGTTVTVSSHHHHHH	89
